# EXPERIMENT_NOTES: Equilibrium surface tension at the air-aqueous solution interface (Wilhelmy plate)
# Assay type: physicochemical
# TEST_CONDITIONS: water, 25 °C
Lab note: anything with CMC at or over 0.7 mM counts as yes; the rest go in no.

Examples from the recorded data:
>  <COMPOUND>
CCCCCCCCOC(=O)[C@H]1O[C@H](OC)[C@H](O)[C@@H](O)[C@@H]1O [3d, Octyl (methyl α-D-glucopyranosid)uronate]

>  <CAT>
yes

$$$$
>  <COMPOUND>
CCCCCCCCCCOC(=O)[C@H]1O[C@H](OC)[C@H](O)[C@@H](O)[C@@H]1O [3e, Decyl (methyl α-D-glucopyranosid)uronate]

>  <CAT>
no

$$$$
>  <COMPOUND>
CCCCCCCCCCCCOC(=O)[C@H]1O[C@H](OC)[C@H](O)[C@@H](O)[C@@H]1O

>  <CAT>
no

$$$$
>  <COMPOUND>
CCCCCCCCOC(=O)C1OC(OC)C(O)C(O)C1O [compound 7, Octyl (methyl α-D-mannopyranosid)uronate]

>  <CAT>
yes

$$$$

Exercise: Item CCCCCCOC(=O)[C@H]1O[C@H](OC)[C@H](O)[C@@H](O)[C@@H]1O [3c, Hexyl (methyl α-D-glucopyranosid)uronate] with CMC of 0.7 mM or above?
Key: yes

###

# EXPERIMENT_NOTES: Aqueous solubility: concentration limit of apparently clear solution ([C]max) by visual observation
# Format: physicochemical
# TEST_CONDITIONS: water, 25 °C (Table 2)
Below: a set of entries, each annotated with reported [C]max.

>  <COMPOUND>
CCCCCCCCOC(=O)[C@H]1O[C@H](OC)[C@H](O)[C@@H](O)[C@@H]1O [3d, Octyl (methyl α-D-glucopyranosid)uronate]

>  <[C]max>
15 to 20 mM

$$$$
>  <COMPOUND>
CCCCCCOC(=O)[C@H]1O[C@H](OC)[C@H](O)[C@@H](O)[C@@H]1O [3c, Hexyl (methyl α-D-glucopyranosid)uronate]

>  <[C]max>
50 to 60 mM

$$$$
>  <COMPOUND>
CCCCCCCCOC(=O)C1OC(OC)C(O)C(O)C1O [compound 7, Octyl (methyl α-D-mannopyranosid)uronate]

>  <[C]max>
5.0 to 6.2 mM

$$$$
>  <COMPOUND>
CCCCCCCCCCCCOC(=O)[C@H]1O[C@H](OC)[C@H](O)[C@@H](O)[C@@H]1O

>  <[C]max>
0.03 to 0.05 mM

$$$$

GET /value?item= CCCCCCCCCCOC(=O)[C@H]1O[C@H](OC)[C@H](O)[C@@H](O)[C@@H]1O [3e, Decyl (methyl α-D-glucopyranosid)uronate] &field=[C]max returns 0.5 to 0.75 mM
